Would you kindly list clearance for each of these compounds?
Test: Pharmacokinetic profile, rat assay (IV)
Format: in vivo
Details: plasma, dose 3 mg/kg
Please give a number only; it is taken to be in mL/min/kg.

For this compound ( CCNC(=O)Nc1nc2cc(-c3cnc(C(C)O)nc3)cc(-c3ccccn3)c2s1 (stereo not drawn) ), measured clearance is 12

The recorded clearance for entry CCNC(=O)Nc1nc2cc(-c3ccc(CO)nc3)cc(-c3ccccn3)c2s1 [Compound B, reference compound] equals 28

Value of measured clearance for the entry CCNC(=O)Nc1nc2cc(-c3cnc(CO)nc3)cc(-c3ccccn3)c2s1 [Compound A, reference compound] : 25

Data credit: patent US8906902B2
